Biological target: T1, calcitonin receptor extracellular domain (hCTR.34–141-H6) (human, UniProt P30988 34-141)
T1 construct: human calcitonin receptor (CTR), extracellular domain, residues 34-141; Secreted from a pHLsec-based vector; also called CTR ECD; purified CTR ECD; source: HEK293T, transiently transfected, secreted to cell culture media, purified (IMAC, SEC)
T1 sequence (looked up): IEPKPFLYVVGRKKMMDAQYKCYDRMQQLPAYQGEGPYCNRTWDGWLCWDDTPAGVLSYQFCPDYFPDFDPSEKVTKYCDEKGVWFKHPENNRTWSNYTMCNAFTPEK
Test: fluorescence polarisation; competition binding, full curves: FITC-sCT(22–32) probe 10 nM, CTR ECD 500 nM, competitive peptide at multiple concentrations, all in solution; KI from non-linear regression of anisotropy
Settings: both partners purified
Where no end group is shown, it is not given here. [ ]: non-standard residue; d: D form. Hyp = O=C(O)[C@@H]1C[C@@H](O)CN1
Exercise: state measured Ki for each of the binders provided.

[[record]]
binder = "YPRTDTG[Hyp]GTP-NH2 (N-terminus assumed; SMILES C[C@@H](O)[C@H](NC(=O)[C@H](CC(=O)O)NC(=O)[C@@H](NC(=O)[C@H](CCCNC(=N)N)NC(=O)[C@@H]1CCCN1C(=O)[C@@H](N)Cc1ccc(O)cc1)[C@@H](C)O)C(=O)NCC(=O)N1C[C@H](O)C[C@H]1C(=O)NCC(=O)N[C@H](C(=O)N1CCC[C@H]1C(N)=O)[C@@H](C)O, salmon calcitonin (sCT), residues 22-32, with N26D and S29HYP; printed as YPRTDTG[HYP]GTP-NH2, the hydroxyproline at 29 is written here as P; numbers count on: the mature 32-residue hormone; Residue 29 is hydroxyproline, not plain proline; source: synthetic peptide (Genscript, HPLC-purified)) [sCT(22–32) N26D/S29HYP]"
observed_measurement = "3180 nM"


// next item, Ki requested
[in] // returns reported Ki for input YPRTDTGVGTP-NH2 (salmon calcitonin (sCT), residues 22-32, with N26D and S29V; numbers count on: the mature 32-residue hormone; source: synthetic peptide (Genscript, HPLC-purified)) [sCT(22–32) N26D/S29V]
[out] 591 nM
